B1: F-BAR and double SH3 domains protein 1, residues 467 to 528; numbered along this chain, Q86WN1 (parent)
chain: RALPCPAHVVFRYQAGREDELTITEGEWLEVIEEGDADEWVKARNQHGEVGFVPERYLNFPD

- Variants of: B1
- Experimental Protocol: abundance fitness (aPCA) (normalised: wild type 0, dead -1); higher = more abundant; growth selection in yeast, the domain comes from the species named
- Protocol Conditions: Homo sapiens
Binned abundance fitness; ranges: bucket 1 = under -0.5, bucket 2 = from -0.5 up to -0.08, bucket 3 = -0.08 and over

Mutant Code	Qualitative Label
T22F	bucket 1
L3Q	bucket 2
V9P	bucket 1
E33N	bucket 2
V41R	bucket 1
Q14L	bucket 2
E18C	bucket 3
E25S	bucket 3
P4H	bucket 2
L29H	bucket 1
V9M	bucket 1
G26H	bucket 2
I32L	bucket 3
L3Y	bucket 3
R12E	bucket 3
E33G	bucket 3
W40G	bucket 1
A2R	bucket 3
E39Q	bucket 3
H8M	bucket 2
E20N	bucket 2
